Values were extracted from patent US11814435B2.

experimental target: T1, hBCMA (human BCMA) (Homo sapiens, UniProt Q02223)
T1 sequence (Q02223 1-184): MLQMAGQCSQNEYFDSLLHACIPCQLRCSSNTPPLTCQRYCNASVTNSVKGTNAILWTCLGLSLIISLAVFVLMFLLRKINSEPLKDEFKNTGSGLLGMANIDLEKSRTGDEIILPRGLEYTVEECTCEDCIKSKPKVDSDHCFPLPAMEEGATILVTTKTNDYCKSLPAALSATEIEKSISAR
test protocol: Kinetics and affinity of hBCMA/human IgG interactions by SPR (Bio-Rad Proteon XPR36)
Assay type: binding
measurement setup: huBCMA, 25° C.
Give measured kd (1/s) huBCMA @25° C. for each item. Keep answers brief.
One number for each entry, in s⁻¹.

Sample records with kd (1/s) huBCMA @25° C.:
[
  {
    "molecule": "L1.GDF/L3.NY/H3.AP: anti-BCMA antibody (antibody, V domains shown) VH: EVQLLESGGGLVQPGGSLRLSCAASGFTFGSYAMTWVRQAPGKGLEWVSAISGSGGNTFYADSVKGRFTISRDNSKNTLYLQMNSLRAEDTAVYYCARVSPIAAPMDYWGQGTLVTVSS VL: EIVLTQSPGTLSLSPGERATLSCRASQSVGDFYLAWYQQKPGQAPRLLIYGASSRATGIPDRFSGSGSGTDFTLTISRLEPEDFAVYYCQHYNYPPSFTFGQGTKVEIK",
    "unit name": "s⁻¹",
    "kd (1/s) huBCMA @25° C.": 0.00141
  },
  {
    "molecule": "L1.GDF/L3.KW/H3.AP: anti-BCMA antibody (antibody, V domains shown) VH: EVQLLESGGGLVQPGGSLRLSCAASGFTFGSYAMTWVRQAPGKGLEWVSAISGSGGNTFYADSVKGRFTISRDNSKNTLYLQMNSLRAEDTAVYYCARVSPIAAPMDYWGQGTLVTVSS VL: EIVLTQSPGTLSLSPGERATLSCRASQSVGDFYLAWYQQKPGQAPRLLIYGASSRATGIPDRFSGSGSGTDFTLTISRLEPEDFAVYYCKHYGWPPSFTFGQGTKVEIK",
    "unit name": "s⁻¹",
    "kd (1/s) huBCMA @25° C.": 0.00461
  },
  {
    "molecule": "L1.GDF/L3.KW/H3.AL: anti-BCMA antibody (antibody, V domains shown) VH: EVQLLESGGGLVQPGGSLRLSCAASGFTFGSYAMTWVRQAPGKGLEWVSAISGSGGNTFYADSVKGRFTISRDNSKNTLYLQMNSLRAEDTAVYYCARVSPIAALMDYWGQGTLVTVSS VL: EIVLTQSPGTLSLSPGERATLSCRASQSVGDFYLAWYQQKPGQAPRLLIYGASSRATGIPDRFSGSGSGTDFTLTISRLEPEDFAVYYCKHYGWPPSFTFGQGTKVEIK",
    "unit name": "s⁻¹",
    "kd (1/s) huBCMA @25° C.": 0.0039
  },
  {
    "molecule": "L1.LGF/L3.KW/H3.AP: anti-BCMA antibody (antibody, V domains shown) VH: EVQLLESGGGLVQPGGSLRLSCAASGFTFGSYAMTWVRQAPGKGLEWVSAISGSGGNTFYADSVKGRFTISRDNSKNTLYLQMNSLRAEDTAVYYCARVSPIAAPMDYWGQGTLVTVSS VL: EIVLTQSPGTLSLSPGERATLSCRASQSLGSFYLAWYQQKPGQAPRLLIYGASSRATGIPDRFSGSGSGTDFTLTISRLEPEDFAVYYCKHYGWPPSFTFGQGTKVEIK",
    "unit name": "s⁻¹",
    "kd (1/s) huBCMA @25° C.": 0.00227
  }
]

Dear reader, for each entry below, please note its kd (1/s) huBCMA @25° C..
1. L1.LGF/L3.NY/H3.AP: anti-BCMA antibody (antibody, V domains shown) VH: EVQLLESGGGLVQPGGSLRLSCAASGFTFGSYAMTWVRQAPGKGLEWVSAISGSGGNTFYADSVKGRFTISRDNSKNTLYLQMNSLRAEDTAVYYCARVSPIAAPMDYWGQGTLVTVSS VL: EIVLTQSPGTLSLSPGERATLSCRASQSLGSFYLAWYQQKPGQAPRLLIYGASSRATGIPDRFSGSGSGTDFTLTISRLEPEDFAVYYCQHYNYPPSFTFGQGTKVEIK
2. L1.LGF/L3.NY/H3.AL: anti-BCMA antibody (antibody, V domains shown) VH: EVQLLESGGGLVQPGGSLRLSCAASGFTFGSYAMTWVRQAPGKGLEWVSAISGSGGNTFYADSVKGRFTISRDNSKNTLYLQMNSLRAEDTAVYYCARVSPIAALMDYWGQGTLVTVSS VL: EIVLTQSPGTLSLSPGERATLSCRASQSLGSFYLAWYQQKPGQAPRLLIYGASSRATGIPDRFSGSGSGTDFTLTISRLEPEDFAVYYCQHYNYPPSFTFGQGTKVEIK
3. L1.GDF/L3.NY/H3.AL: anti-BCMA antibody (antibody, V domains shown) VH: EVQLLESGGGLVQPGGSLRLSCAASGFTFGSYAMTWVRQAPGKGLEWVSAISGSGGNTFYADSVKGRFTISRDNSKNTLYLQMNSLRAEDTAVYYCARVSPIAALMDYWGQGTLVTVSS VL: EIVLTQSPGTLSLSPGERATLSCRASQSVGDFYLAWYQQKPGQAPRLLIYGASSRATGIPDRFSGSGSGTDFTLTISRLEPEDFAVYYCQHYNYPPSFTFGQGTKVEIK

0.000533
0.00097
0.00403

Dear reader, for each entry below, please note its kd (1/s) huBCMA @25° C..
1. L1.LGF/L3.KW/H3.AL: anti-BCMA antibody (antibody, V domains shown) VH: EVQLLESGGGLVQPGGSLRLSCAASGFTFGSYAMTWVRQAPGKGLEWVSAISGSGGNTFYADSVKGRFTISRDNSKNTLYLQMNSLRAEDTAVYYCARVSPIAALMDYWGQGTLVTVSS VL: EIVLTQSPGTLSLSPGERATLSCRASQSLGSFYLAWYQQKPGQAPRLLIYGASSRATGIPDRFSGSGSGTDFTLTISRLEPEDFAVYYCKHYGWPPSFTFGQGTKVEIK
2. L1.LGF/L3.PY/H3.AP: anti-BCMA antibody (antibody, V domains shown) VH: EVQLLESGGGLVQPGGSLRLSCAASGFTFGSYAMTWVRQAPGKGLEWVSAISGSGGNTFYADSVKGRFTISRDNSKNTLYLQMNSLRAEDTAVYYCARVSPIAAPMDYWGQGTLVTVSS VL: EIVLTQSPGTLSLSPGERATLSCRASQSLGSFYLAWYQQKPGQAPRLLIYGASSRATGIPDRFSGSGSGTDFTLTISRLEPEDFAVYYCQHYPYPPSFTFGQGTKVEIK

1. 0.00123
2. 0.000969
